All figures here come from patent US10100076B2.

As shown below, each of these compounds has a reported Ave. HCV RNA ΔCt value.
system: HCV replicon; assay: HCV replicon system in Huh7 cells, replicon RNA by Q-RT-PCR (HCV ΔCt, ΔΔCt); type: cell-based, hepatitis C virus; conditions: Table 25; HCV replicon in Huh7 cells; average of N; note: test concentration or dose not given here

compound | endpoint_name | observed_value
Nc1nc(=O)n([C@@H]2O[C@H](CO)[C@@H](O)[C@@H]2O)cc1F [β-D-AP] | Ave. HCV RNA ΔCt | 3.27
Nc1nc(=O)n([C@@H]2O[C@H](CO)[C@@H](O)[C@H]2O)cc1F [β-D-AQ] | Ave. HCV RNA ΔCt | 4.75
Nc1nc(=O)n([C@@H]2O[C@H](CO)[C@@H](O)[C@@H]2Br)cc1I [β-D-BH] | Ave. HCV RNA ΔCt | 3.06
Nc1nc(F)nc2c1ncn2[C@@H]1CS[C@H](CO)O1 [β-L-KC] | Ave. HCV RNA ΔCt | 2.73
OC[C@@H]1C[C@H](F)[C@H](n2cnc3c(Cl)ncnc32)O1 [β-D-DH] | Ave. HCV RNA ΔCt | 4.14

## Input Looking for the measured Ave. HCV RNA ΔCt of O=c1nc2n(cc1F)[C@@H]1O[C@H](CO2)[C@@H](O)[C@H]1O [β-D-LA] , can you help?
## Output 3.54

## Input Okay, and Nc1nc(=O)n([C@@H]2O[C@H](CO)[C@H](Br)[C@H]2O)cc1I [β-D-BE] ?
## Output 4.99

## Input Another: Nc1ccn([C@@H]2O[C@H](CO)C[C@H]2O)c(=O)n1 [β-D-AJ]
## Output 2.75

====

tested on: CEM cells; assay: cells; format: cell-based, human; conditions: CEM (human T-cell lymphoma cell line); MTT assay, incubation 3-5 days; read-out: Toxicity IC50
endpoint_name: pIC50
// pIC50: -log10(molar conc.)

// solved cases for pIC50 follow
compound | observed_value
O=c1[nH]cc(F)c(=O)[nH]1 | 4.04
Nc1ccn([C@@H]2O[C@H](CO)[C@@H](O)[C@@H]2O)c(=O)n1 [Ara-C, reference compound] | 6.22

// next item, pIC50 requested
## Input I have this compound here, "Nc1nc(=O)n([C@@H]2C[C@H](CO)[C@@H](O)[C@H]2O)cc1F" , and I need its recorded pIC50.
## Output 5.54

====

system: rDNA (host DNA); test: rDNA ΔCt in Huh7 replicon cells (effect on cellular DNA polymerases); details: Table 25, average of N; note: test concentration or dose not given here
Assign labels as follows, please: T for Ave. rDNA ΔCt below 2; F for Ave. rDNA ΔCt equal to or exceeding 2.

Some solved cases for reference:
compound | class_label
Nc1ccn([C@@H]2O[C@H](CO)[C@@H](O)[C@@H]2O)c(=O)n1 | F
Nc1nc(=O)n([C@@H]2C=C(CO)[C@@H](O)[C@H]2O)cc1F | T
O=c1[nH]c(=O)n([C@@H]2O[C@H](CO)[C@@H](O)[C@H]2O)cc1F | F
Nc1nc(F)nc2c1ncn2[C@@H]1C=C[C@H](CO)O1 | T
Nc1nc(F)nc2c1ncn2[C@@H]1CS[C@H](CO)O1 | T

Here is another compound to look at.
## Input Strictly below 2: is that where Ave. rDNA ΔCt of "O=c1nc(NO)c(F)cn1[C@@H]1O[C@H](CO)[C@@H](O)[C@H]1O" sits?
## Output T
